Reported GI50 by item:
# Tested on: SK-MEL-2
# MEASUREMENT PROTOCOL: NCI tumour cell line growth inhibition, 48 h
Calls of active or inactive are those of the source. Rule as the data show it: active = GI50 up to about 1.1 µM and inactive = higher.

Worked examples, 2 molecules total:
>>> df
                              smiles_record  experimental_endpoint  reported_measurement
0  Cc1sccc1C(=S)Nc1ccc(Cl)c(/C=N/OC(C)(C)C)c1                   GI50    15.5 µM (inactive)
1  O=C(/C=C1\Nc2ncccc2N=C1CC(=O)c1ccccc1)c1ccccc1                   GI50    12.6 µM (inactive)

Note: attention shifts to another entry.
Provide one value: measured GI50 of O=C(/C=C/c1cccs1)c1ccccc1Cl
20.1 µM (inactive)
